# target.desc: c-Met (soluble recombinant, hepatocyte growth factor receptor) (Homo sapiens, UniProt P08581 25-932)
# Sequence (P08581 25-932): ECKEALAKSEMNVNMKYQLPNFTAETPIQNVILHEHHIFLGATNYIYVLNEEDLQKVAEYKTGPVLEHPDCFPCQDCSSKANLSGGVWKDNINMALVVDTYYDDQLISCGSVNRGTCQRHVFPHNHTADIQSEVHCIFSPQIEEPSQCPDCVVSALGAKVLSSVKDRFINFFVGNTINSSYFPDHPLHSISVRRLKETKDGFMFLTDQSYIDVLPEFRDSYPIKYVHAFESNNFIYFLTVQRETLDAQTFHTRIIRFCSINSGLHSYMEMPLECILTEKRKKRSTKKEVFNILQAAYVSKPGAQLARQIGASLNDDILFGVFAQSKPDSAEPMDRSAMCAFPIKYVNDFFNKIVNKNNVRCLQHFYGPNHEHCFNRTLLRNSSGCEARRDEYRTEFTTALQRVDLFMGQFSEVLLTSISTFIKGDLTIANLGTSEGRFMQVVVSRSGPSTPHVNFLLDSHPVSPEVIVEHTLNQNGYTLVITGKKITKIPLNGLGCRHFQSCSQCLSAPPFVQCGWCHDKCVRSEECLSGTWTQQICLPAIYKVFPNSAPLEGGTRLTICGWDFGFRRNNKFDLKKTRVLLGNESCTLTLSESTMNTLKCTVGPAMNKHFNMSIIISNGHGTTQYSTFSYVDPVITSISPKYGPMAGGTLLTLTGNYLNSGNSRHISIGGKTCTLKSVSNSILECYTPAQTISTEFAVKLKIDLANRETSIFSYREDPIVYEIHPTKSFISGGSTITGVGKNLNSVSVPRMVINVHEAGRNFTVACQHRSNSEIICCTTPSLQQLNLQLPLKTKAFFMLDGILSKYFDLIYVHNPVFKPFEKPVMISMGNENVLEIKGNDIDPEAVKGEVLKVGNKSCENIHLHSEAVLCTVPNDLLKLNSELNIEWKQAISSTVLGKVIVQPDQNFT
# experiment.summary: FCS; 5 mM Mg2+ in folding buffer; 100 pM aptamer; PBS pH 7.4; aptamer folded in PBS with 5 mM MgCl2 (1 mM for AS1411 and 36t), 90 C 2 min then cooled; final buffer not detailed; overnight at room temperature; 100 pM aptamer (1 nM for serum proteins)
# assay.setup: protein: commercial; tags: polyhistidine tag; label: 5'-atto633; G-quadruplex
quantity.measured: pKd
Hey, just a heads up that pKd is the negative log base 10 of the concentration in molar.

GET /value?item= CLN3 (structured_DNA) DNA: ATCAGGTGGATGGTAGCTCGGTCGGGGTGGGTGGGTTGGCAAGTCTGATTA &field=pKd returns 8.30
